Cited source for all entries: patent US20060069132A1

# Test system: pigweed
# TEST: Test C pre-/postemergence herbicide test
# Format: in vivo, Amaranthus retroflexus
# CONDITION_CONTEXT: postemergence, 125 g ai/ha; scale 0 to 100
Can you tell me Plant response rating, Pigweed for the items I'm about to list?
One number for each entry.

Here's what some known entries look like.
* CCn1nc(C(C)(C)C)cc1C(=O)Nc1cccc(OC(F)(F)C(F)F)c1 | 100
* C#CCOC(=O)c1cccc(NC(=O)c2cc(C(C)(C)C)nn2CC)c1 | 100
* CCn1nc(C(C)(C)C)cc1C(=O)Nc1cccc(OC(F)(F)F)c1 | 100

Here's the next entry for you.
Inquiry: Looking for the measured Plant response rating, Pigweed of `CCn1nc(C(C)(C)C)cc1C(=O)Nc1cccc(C(=O)OC)c1` , can you help?
Reply text: 10

====

# Test system: blackgrass
# TEST: Test B postemergence herbicide test
# Assay type: in vivo, Alopecurus myosuroides
# CONDITION_CONTEXT: postemergence, 500 g ai/ha; scale 0 to 100, 0 is no effect, 100 is complete control
For each record, write down the corresponding Blackgrass plant response rating.
Answers are plain numbers.

* C#CCNC(=O)c1cccc(NC(=O)c2nn(C(C)C)nc2CC)c1 | 0
* Cc1nn(C(C)(C)C)cc1C(=O)Nc1cc(C(=O)N(C)C)ccc1F | 0

// for each compound in input: emit Blackgrass plant response rating
1. C=CCN(CC=C)C(=O)c1ccc(F)c(NC(=O)c2nn(C(C)(C)C)nc2CC)c1
2. COC(=O)c1cccc(NC(=O)c2cc(C(C)(C)C)nn2C)n1
3. CCn1nc(C(C)(C)C)cc1C(=O)Nc1cncc(C(=O)NCC(F)(F)F)n1
4. CCOC(=O)c1ccc(F)c(NC(=O)c2cc(C3(C)CC3)nn2CC)c1
5. CCNC(=O)c1cncc(NC(=O)c2cc(C(C)(C)C)nn2CC)n1

Reply text:
[20, 0, 10, 40, 20]

====

# Tested on: pigweed
# TEST: Test B pre-/postemergence herbicide test
# Format: in vivo, Amaranthus retroflexus
# CONDITION_CONTEXT: postemergence, 500 g ai/ha; visual rating, scale 0 (no effect) to 100 (complete control)
ASSAY_ENDPOINT: Pigweed plant response rating
Give bare numbers.

Sample records with Pigweed plant response rating:
• CCn1nc(C(C)(C)C)cc1C(=O)Nc1nc(OC)cc(SCF)n1 [Compound 167] = 0
• C#CCN(C)C(=O)c1ccnc(NC(=O)c2cc(C(C)(C)C)nn2CC)c1 [Compound 160] = 80
• C=CCN(C)C(=O)c1ccnc(NC(=O)c2cc(C(C)(C)C)nn2CC)c1 [Compound 159] = 80
• CC(=NO)c1ccnc(NC(=O)c2cc(C(C)(C)C)nn2C)n1 [Compound 164] = 0
• CCc1cn(C(C)(C)C)nc1C(=O)Nc1cc(C(=O)N(C)CC)ccn1 [Compound 235] = 40
• CCn1nc(C(C)(C)C)cc1C(=O)Nc1cccc(C#N)c1 [Compound 139] = 90
• CCc1nn(C(C)(C)C)cc1C(=O)Nc1ccc(F)c(C(=O)N(C)C)c1 [Compound 239] = 50

Lab note: next compound to report on.
Inquiry: Requested read-out: Pigweed plant response rating. Entry: CCn1nc(C(C)(C)C)cc1C(=O)Nc1cc(C#N)ccc1F [Compound 140]
Reply text: 0

====

For each of the compounds below, state its Plant response rating, Cocklebur.
# Test system: cocklebur
# TEST: Test B pre-/postemergence herbicide test
# Format: in vivo, Xanthium strumarium
# CONDITION_CONTEXT: 500 g ai/ha; visual rating 0-100, 0 no effect, 100 complete control; preemergence
Give bare numbers.

* CCn1nc(C(C)(C)C)cc1C(=O)Nc1cccc(C(C)=NO)c1 [Compound 108] | 30
* C=CCNC(=O)c1cccc(NC(=O)c2sc(C(C)(C)C)nc2C)c1 [Compound 202] | 10
* CC(=O)c1cc(NC(=O)c2cc(C(C)(C)C)nn2C)ccc1F [Compound 123] | 0
* CCn1nc(C(C)(C)C)cc1C(=O)Nc1cccc(C#N)c1 [Compound 139] | 10

Items follow; give Plant response rating, Cocklebur for each.
1. CCn1nc(C(C)(C)C)cc1C(=O)Nc1cccc(C(=O)OC(C)C)c1C [Compound 92]
2. CCn1nc(C(C)(C)C)cc1C(=O)Nc1ccc(C)c(C(=O)OC(C)C)c1 [Compound 100]
3. Cc1nc(C(C)(C)C)sc1C(=O)Nc1cccc(C(=O)NCC(F)(F)F)c1 [Compound 201]
4. CCN(CC)C(=O)c1cccc(NC(=O)c2cc(C(C)(C)C)nn2CC)n1 [Compound 145]

Reply text:
1. 0
2. 0
3. 0
4. 20

====

Please respond with reported Ducksalad plant response rating for every item in the list.
# System: ducksalad
# TEST: Test C flooded paddy test
# Type: in vivo, Heteranthera limosa
# CONDITION_CONTEXT: 250 g ai/ha, scale of 0 to 100, 0 is no effect, 100 is complete control
One number for each entry.

Some solved cases for reference:
* CC(=NO)c1cccc(NC(=O)c2cc(C(C)(C)C)nn2CC(F)(F)F)c1 | 0
* CCNC(=O)c1ccnc(NC(=O)c2cc(C(C)(C)C)nn2CC)c1 | 85
* CCn1nc(C(C)(C)C)cc1C(=O)Nc1cccc(C(=O)N(C)CC#N)n1 | 20
* C=CCOc1cccc(NC(=O)c2cc(C(C)(C)C)nn2CC)c1 | 60

Inquiry: What measured Ducksalad plant response rating is associated with `CCn1nc(C(C)(C)C)cc1C(=O)Nc1cccc(C(=O)N2CC=CC2)c1` on ducksalad?
Reply text: 90

====

# Test system: Surinam grass
# TEST: Test B pre-/postemergence herbicide test
# Type: in vivo, Urochloa decumbens
# CONDITION_CONTEXT: 500 g ai/ha; visual rating, 0 = no effect, 100 = complete control; preemergence
Record form. Attribute: Plant response rating, Surinam Grass. Fill in for each entry.
Numbers only.

Worked set:
• CCn1nc(C(C)(C)C)cc1C(=O)Nc1cncc(C(=O)NCC(F)(F)F)n1 [Compound 291] = 0
• C#CCNC(=O)c1cccc(NC(=O)c2cc(C(C)(C)C)nn2C)n1 [Compound 316] = 0
• CCOc1ccc(F)c(NC(=O)c2cc(C(C)(C)C)nn2CC)c1 [Compound 348] = 0

Hello, I would appreciate it if you could give Plant response rating, Surinam Grass for each entry below.
1. CCC1=NN(C(C)(C)C)CC1C(=O)Nc1cc(C(=O)N2CC=CC2)ccc1F (racemic) [Compound 340]
2. CCN1N=C(C(C)(C)C)CC1C(=O)Nc1cc(C(=O)N2CCCC2)ccc1F (racemic) [Compound 309]
3. CCCOC(=O)c1cc(NC(=O)c2cc(C(C)(C)C)nn2CC)c(F)cc1F [Compound 249]

Reply text:
100
100
20

# map each compound to its Plant response rating, Surinam Grass
1. C#CCNC(=O)c1cncc(NC(=O)c2cc(C(C)(C)C)nn2CC)c1 [Compound 264]
2. CCn1nc(C(C)(C)C)cc1C(=O)Nc1ccnc(C(=O)NCCF)c1 [Compound 284]
3. CCc1cn(C(C)(C)C)nc1C(=O)Nc1cccc(C(=O)N(C)C)n1 [Compound 330]

Reply text:
10
10
0

====

# System: Surinam grass
# TEST: Test B pre-/postemergence herbicide test
# Format: in vivo, Urochloa decumbens
# CONDITION_CONTEXT: postemergence, 500 g ai/ha; visual rating, scale 0 (no effect) to 100 (complete control)
ASSAY_ENDPOINT: Surinam Grass plant response rating
Answers are plain numbers.

* Cc1nc(C(C)(C)C)sc1C(=O)Nc1cccc(C(=O)NCC(F)(F)F)c1 | 10
* CCc1nn(C(C)(C)C)cc1C(=O)Nc1cc(C(=O)NC)ccc1F | 10
* CC(=O)c1cccc(NC(=O)c2cn(C(C)C)nc2C)c1 | 0
* CCc1cn(C(C)(C)C)nc1C(=O)Nc1cc(C(=O)N(C)CC)ccn1 | 10
* C#CCN(C)C(=O)c1ccnc(NC(=O)c2cc(C(C)(C)C)nn2CC)c1 | 10
* CCc1nc(C(C)(C)C)sc1C(=O)Nc1cccc(C(=O)NCC2CC2)n1 | 10
* C=CCN(C)C(=O)c1ccnc(NC(=O)c2cc(C(C)(C)C)nn2CC)c1 | 20
* CCNC(=O)c1cc(C)nc(NC(=O)c2cc(C(C)(C)C)nn2CC)c1 | 20

Proceed to the following item.
Inquiry: I would be grateful if you could share the reported Surinam Grass plant response rating for `C=CCNC(=O)c1cccc(NC(=O)c2sc(C(C)(C)C)nc2C)c1` .
Reply text: 10

====

# Tested on: large crabgrass
# TEST: Test A pre-/postemergence herbicide test
# Format: in vivo, Digitaria sanguinalis
# CONDITION_CONTEXT: Postemergence, 500 g ai/ha; 0 to 100 scale, 0 no effect, 100 complete control
For each entry below, report its Crabgrass, Large plant response rating value.

* C#CCNC(=O)c1cccc(NC(=O)c2sc(C(C)(C)C)nc2C)c1 [Compound 203] | 10
* CCn1nc(C(C)(C)C)cc1C(=O)Nc1cccc(C(=O)NC2CC2)n1 [Compound 146] | 15
* CCn1nc(C(C)(C)C)cc1C(=O)Nc1cncc(C(=O)NCC(F)(F)F)n1 [Compound 291] | 5
* CCn1nc(C(C)(C)C)cc1C(=O)Nc1nc(C(=O)N(C)C)ccc1F [Compound 277] | 0

// switching to the query compound
Inquiry: Recorded Crabgrass, Large plant response rating for CCn1nc(C(C)(C)C)cc1C(=O)Nc1cccc(C#N)c1 [Compound 139] , please?
Reply text: 0
